# Test system: S. cerevisiae NKY1551 his4x/his4B, sporulating;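 further: active if sensitivity score above 5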
# MEASUREMENT NOTES: HIS4 meiotic recombination assay sensitivity score (z-score vs DMSO controls); higher = stronger inhibition of sporulation/recombination, active = hit call of the paper
Where a name gives a salt, the structure may show the parent alone.
Each entry below lists one item and its recorded HIS4 meiotic recombination assay sensitivity score value.
// no unit string in output, number only

Example entries and their recorded answers appear below.
{"columns": ["COMPOUND", "ASSAY VALUE"],
 "data": [
  ["O=c1ncc(F)c[nH]1 [5-Fluoro-2-Pyrimidone] (stock concentration (mM, diluted 1:100): 10)", -0.02],
  ["Cc1c(OCC(F)(F)F)ccnc1C[S+]([O-])c1nc2ccccc2[nH]1 (stereo not drawn) [Lansoprazole] (stock concentration (mM, diluted 1:100): 10.1)", 1.42]
]}

Kindly consider the entry below.
Query string: Given the entry CN(C)CC/C=C1/c2ccccc2COc2ccc(CC(=O)O)cc21 [Olopatadine hydrochloride] (stock concentration (mM, diluted 1:100): 12.7) , report its measured HIS4 meiotic recombination assay sensitivity score.
Result string: -0.7

###

# Tested on: S. cerevisiae BY4741 (wild-type), vegetative growth in YPD
# MEASUREMENT NOTES: growth sensitivity score (doubling time z-score vs DMSO controls); higher = slower growth, strongly negative scores also mark growth inhibition (complete suppression), active = hit call of the paper
Structures can show the parent of a compound that is named as a salt.
Returns one of 1 or 0; 1 when growth sensitivity score is >= -0.2.

The examples below pair each entry with its known result.
{"columns": ["COMPOUND", "ASSIGNED CLASS"],
 "data": [
  ["COc1ccccc1N1CCN(CCCNc2cc(=O)n(C)c(=O)n2C)CC1 [Urapidil hydrochloride] (stock concentration (mM, diluted 1:100): 10)", 1],
  ["COc1ccc(CC2c3cc(OC)c(OC)cc3CC[N+]2(C)CCC(=O)OCCCCCOC(=O)CC[N+]2(C)CCc3cc(OC)c(OC)cc3C2Cc2ccc(OC)c(OC)c2)cc1OC (stereo unspecified) [Atracurium besylate] (stock concentration (mM, diluted 1:100): 10)", 0],
  ["NC1CCN(c2cccc(Cl)n2)CC1 (stock concentration (mM, diluted 1:100): 10)", 1],
  ["O=C(NCCO[N+](=O)[O-])c1cccnc1 [Nicorandil] (stock concentration (mM, diluted 1:100): 10)", 0],
  ["C[N+]1(C)CCC(OC(=O)C(O)(c2ccccc2)C2CCCC2)C1 (stereo unspecified) [Glycopyrrolate] (stock concentration (mM, diluted 1:100): 10)", 1]
]}

Please find the next compound below.
Query string: Kindly determine if growth sensitivity score recorded for CN1CCc2cc(Cl)c(O)cc2[C@@H](c2ccccc2)C1 (stock concentration (mM, diluted 1:100): 9.9) is above or exactly -0.2.
Result string: 0

###

# Tested on: S. cerevisiae NKY1551 his4x/his4B, sporulating;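 further: active if sensitivity score above 5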
# MEASUREMENT NOTES: HIS4 meiotic recombination assay sensitivity score (z-score vs DMSO controls); higher = stronger inhibition of sporulation/recombination, active = hit call of the paper
Counter-ions that a name gives are not always drawn.
MEASURE: HIS4 meiotic recombination assay sensitivity score
// no unit string in output, number only

Example entries and their recorded answers appear below.
{"columns": ["COMPOUND", "ASSAY VALUE"],
 "data": [
  ["Cc1cccc(C)c1NC(=O)C1CCCCN1C (configuration not stated) [Mepivacaine hydrochloride] (stock concentration (mM, diluted 1:100): 10)", 0.1],
  ["N[C@@H](C(=O)N[C@@H]1C(=O)N2C(C(=O)O)=C(Cl)CS[C@H]12)c1ccccc1 [Cefaclor] (stock concentration (mM, diluted 1:100): 10)", 1.51],
  ["O=C1[C@H](CC[C@H](O)c2ccc(F)cc2)[C@@H](c2ccc(O)cc2)N1c1ccc(F)cc1 [Ezetimibe] (stock concentration (mM, diluted 1:100): 10)", -0.94]
]}

Query string: Given the entry CCCCC(=O)N(Cc1ccc(-c2ccccc2-c2nnn[nH]2)cc1)[C@H](C(=O)O)C(C)C [Valsartan] (stock concentration (mM, diluted 1:100): 10) , report its measured HIS4 meiotic recombination assay sensitivity score.
Result string: -0.5

Query string: Given the entry COC(=O)C1=C(C)NC(C)=C(C(=O)OC2CCCN(Cc3ccccc3)C2)C1c1cccc([N+](=O)[O-])c1 (configuration not stated) [Benidipine hydrochloride] (stock concentration (mM, diluted 1:100): 6) , report its measured HIS4 meiotic recombination assay sensitivity score.
Result string: -1.2

Query string: Given the entry CC[C@@H]1C(=O)OC[C@@H]1Cc1cncn1C [Pilocarpine hydrochloride] (stock concentration (mM, diluted 1:100): 10) , report its measured HIS4 meiotic recombination assay sensitivity score.
Result string: -0.54

Query string: Given the entry CCC1=C[C@H]2CN(C1)Cc1c([nH]c3ccccc13)[C@@](C(=O)OC)(c1cc3c(cc1OC)N(C)[C@H]1[C@@](O)(C(=O)OC)[C@H](OC(C)=O)[C@]4(CC)C=CCN5CC[C@]31[C@@H]54)C2 [Vinorelbine bitatrate] (stock concentration (mM, diluted 1:100): 7.2) , report its measured HIS4 meiotic recombination assay sensitivity score.
Result string: -0.36

Query string: Given the entry NC(N)=Nc1nc(CSCC/C(N)=N/S(N)(=O)=O)cs1 [Famotidine] (stock concentration (mM, diluted 1:100): 10) , report its measured HIS4 meiotic recombination assay sensitivity score.
Result string: -0.42

Query string: Given the entry CN(C/C=C/C#CC(C)(C)C)Cc1cccc2ccccc12 [Terbinafine hydrochloride] (stock concentration (mM, diluted 1:100): 8.9) , report its measured HIS4 meiotic recombination assay sensitivity score.
Result string: -0.72

###

# Tested on: S. cerevisiae BY4741 (wild-type), vegetative growth in YPD
# MEASUREMENT NOTES: growth sensitivity score (doubling time z-score vs DMSO controls); higher = slower growth, strongly negative scores also mark growth inhibition (complete suppression), active = hit call of the paper
Where a name gives a salt, the structure may show the parent alone.
Each entry below lists one item and its recorded growth sensitivity score value.

{"columns": ["COMPOUND", "growth sensitivity score"],
 "data": [
  ["O=C(O)/C=C/c1ccc(Cn2ccnc2)cc1 [Ozagrel hydrochloride] (stock concentration (mM, diluted 1:100): 8.6)", "2.72 (active)"],
  ["C=CC1=C(C(=O)O)N2C(=O)[C@@H](NC(=O)/C(=N\\OCC(=O)O)c3csc(N)n3)[C@H]2SC1 [Cefixime trihydrate] (stock concentration (mM, diluted 1:100): 10)", "-0.62 (inactive)"],
  ["CC(C)[C@H](N)C(=O)OCCOCn1cnc2c(=O)nc(N)[nH]c21 [Valaciclovir hydrochloride] (stock concentration (mM, diluted 1:100): 9)", "0.36 (inactive)"],
  ["CN1CCN(CCCN2c3ccccc3Sc3ccc(Cl)cc32)CC1 [Prochlorperazine] (stock concentration (mM, diluted 1:100): 10.4)", "146 (active)"]
]}

Kindly consider the entry below.
Query string: Given the entry COc1ccnc(C[S+]([O-])c2nc3cc(OC(F)F)ccc3[nH]2)c1OC (stereo not given) [Pantoprazole sodium] (stock concentration (mM, diluted 1:100): 10) , report its measured growth sensitivity score.
Result string: -0.44 (inactive)

###

# Test system: S. cerevisiae NKY1551 his4x/his4B, sporulating;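 further: active if sensitivity score above 5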
# MEASUREMENT NOTES: HIS4 meiotic recombination assay sensitivity score (z-score vs DMSO controls); higher = stronger inhibition of sporulation/recombination, active = hit call of the paper
Counter-ions that a name gives are not always drawn.
MEASURE: HIS4 meiotic recombination assay sensitivity score
// no unit string in output, number only

Example entries and their recorded answers appear below.
{"columns": ["MOLECULE", "ASSAY VALUE"],
 "data": [
  ["CCN(CC)C(=O)C1(c2ccccc2)CC1CN (stereo not drawn) [Milnacipran] (stock concentration (mM, diluted 1:100): 10)", -0.19],
  ["CN(C)CCOC(c1ccccc1)c1ccccc1 [Diphenhydramine hydrochloride] (stock concentration (mM, diluted 1:100): 10)", 8.82]
]}

Kindly consider the entry below.
Query string: Given the entry CN(C)CCC=C1c2ccccc2COc2ccccc21 [Doxepin] (stock concentration (mM, diluted 1:100): 10) , report its measured HIS4 meiotic recombination assay sensitivity score.
Result string: 3.87

###

# System: S. cerevisiae AD1-9 (efflux-pump deficient), vegetative growth in YPD
# MEASUREMENT NOTES: growth sensitivity score (doubling time z-score vs DMSO controls); higher = slower growth, strongly negative scores also mark growth inhibition (complete suppression), active = hit call of the paper
Counter-ions that a name gives are not always drawn.
Each entry below lists one item and its recorded growth sensitivity score value.

{"columns": ["COMPOUND", "growth sensitivity score"],
 "data": [
  ["Cc1c(O)c(=O)ccn1C [Deferiprone] (stock concentration (mM, diluted 1:100): 10)", "-1.63 (inactive)"],
  ["CN(CCOc1ccc(CC2SC(=O)NC2=O)cc1)c1ccccn1 (stereo unspecified) [Rosigltazone hydrochloride] (stock concentration (mM, diluted 1:100): 8.2)", "0.66 (inactive)"],
  ["COc1cc(C(=O)NS(=O)(=O)c2ccccc2C)ccc1Cc1cn(C)c2ccc(NC(=O)OC3CCCC3)cc12 [Zafirlukast] (stock concentration (mM, diluted 1:100): 10)", "40.9 (active)"],
  ["CNCCCC12CCC(c3ccccc31)c1ccccc12 [Maprotilline hydrochloride] (stock concentration (mM, diluted 1:100): 10)", "86.6 (active)"],
  ["Oc1ccc(/C=C/c2cc(O)cc(O)c2)cc1 [Resveratrol] (stock concentration (mM, diluted 1:100): 10)", "-0.99 (inactive)"]
]}

Query string: Given the entry CC(=O)O[C@H]1C[C@@H]2CC[C@@H]3[C@H](CC[C@@]4(C)[C@H]3C[C@H]([N+]3(C)CCCCC3)[C@@H]4OC(C)=O)[C@@]2(C)C[C@@H]1N1CCCCC1 [Vecuronium bromide] (stock concentration (mM, diluted 1:100): 10) , report its measured growth sensitivity score.
Result string: -5.36

Query string: Given the entry O=c1cnn([C@@H]2O[C@H](CO)[C@@H](O)[C@H]2O)c(=O)[nH]1 [6-Azauridine] (stock concentration (mM, diluted 1:100): 10) , report its measured growth sensitivity score.
Result string: 0.13 (inactive)

Query string: Given the entry CN1CCC(=C2c3ccccc3C=Cc3ccccc32)CC1 [Cyproheptadine hydrochloride] (stock concentration (mM, diluted 1:100): 10) , report its measured growth sensitivity score.
Result string: 9.58 (active)

Query string: Given the entry CN(CCOc1ccc(NS(C)(=O)=O)cc1)CCc1ccc(NS(C)(=O)=O)cc1 [Dofetilide] (stock concentration (mM, diluted 1:100): 10) , report its measured growth sensitivity score.
Result string: -1.59 (inactive)

Query string: Given the entry CC(=O)CCCCn1cnc2c1c(=O)n(C)c(=O)n2C [Lomifylline] (stock concentration (mM, diluted 1:100): 10) , report its measured growth sensitivity score.
Result string: -0.96 (inactive)

Query string: Given the entry CN1CCN(C2=Nc3cc(F)ccc3Cc3ccccc32)CC1 [Fluperlapine] (stock concentration (mM, diluted 1:100): 10) , report its measured growth sensitivity score.
Result string: 2.12 (active)

Query string: Given the entry CC(=O)NC[C@H]1CN(c2ccc(N3CCOCC3)c(F)c2)C(=O)O1 [Linezolide] (stock concentration (mM, diluted 1:100): 10) , report its measured growth sensitivity score.
Result string: 2.05 (active)
